Target: T1, EsCas13d, nuclease-dead (Eubacterium siraeum, UniProt B0MS50, R295A;H300A;R849A;H854A)
T1 sequence: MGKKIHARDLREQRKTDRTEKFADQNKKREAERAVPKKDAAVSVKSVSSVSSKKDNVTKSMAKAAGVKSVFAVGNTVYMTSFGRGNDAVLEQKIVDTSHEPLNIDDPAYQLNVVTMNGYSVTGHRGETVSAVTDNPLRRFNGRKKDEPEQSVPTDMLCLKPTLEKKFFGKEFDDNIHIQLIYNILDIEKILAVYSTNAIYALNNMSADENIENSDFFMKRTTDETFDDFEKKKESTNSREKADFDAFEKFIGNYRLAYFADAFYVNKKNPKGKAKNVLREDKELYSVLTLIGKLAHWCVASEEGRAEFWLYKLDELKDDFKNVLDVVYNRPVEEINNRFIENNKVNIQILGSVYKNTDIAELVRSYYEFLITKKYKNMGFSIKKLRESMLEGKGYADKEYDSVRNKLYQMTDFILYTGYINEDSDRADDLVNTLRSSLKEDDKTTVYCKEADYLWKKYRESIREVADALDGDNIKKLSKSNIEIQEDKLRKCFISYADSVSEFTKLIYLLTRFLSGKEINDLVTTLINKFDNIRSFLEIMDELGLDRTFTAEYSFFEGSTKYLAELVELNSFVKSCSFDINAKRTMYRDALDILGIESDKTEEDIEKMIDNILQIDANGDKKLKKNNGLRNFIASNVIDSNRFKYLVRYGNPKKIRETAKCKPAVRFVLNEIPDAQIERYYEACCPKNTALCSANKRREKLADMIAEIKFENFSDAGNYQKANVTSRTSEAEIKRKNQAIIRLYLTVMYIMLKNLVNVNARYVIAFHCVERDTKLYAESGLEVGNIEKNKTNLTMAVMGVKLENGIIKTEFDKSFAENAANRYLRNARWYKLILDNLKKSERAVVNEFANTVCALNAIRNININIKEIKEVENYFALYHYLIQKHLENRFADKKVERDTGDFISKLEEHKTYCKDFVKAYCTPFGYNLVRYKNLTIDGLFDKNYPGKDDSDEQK
Assay: crRNA (strand 1, pre-loaded); Mg2+; 40 mM Tris-HCl pH 7.5, 150 mM NaCl, 6 mM MgCl2, 1 mM DTT, 0.1% Tween-20, 0.2 mg/ml BSA; 25 C; 10 min per concentration, then washed
Details: tags: His6-TwinStrep-SUMO cleaved; N-terminal SNAP kept (SNAP-Surface 488); label: 3' end held by stalled T7 RNA polymerase
Give measured pKd for each item. Keep answers brief.
Answers are plain numbers, as −log10 of the molar value.

target 1 MT 5'PFS GGA 3'PFS UAC (mixed) RNA 1: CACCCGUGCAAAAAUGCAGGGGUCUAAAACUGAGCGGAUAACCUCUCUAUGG RNA 2: GGGAAUGGAUCCACAUCUACGAAUUCGGACCAUAGAGAGGUUAUCCGCUCAUACAGAUCGGAAGAGCACACGU ... 7.85

Please turn your attention to the following entry.
Ask: Suppose we examine the binder target 2 MT 5'PFS CGG 3'PFS AAC (mixed) RNA 1: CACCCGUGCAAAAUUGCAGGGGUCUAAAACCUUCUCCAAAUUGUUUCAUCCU RNA 2: GGGAAUGGAUCCACAUCUACGAAUUCCGGAGGAUGAAACAAUUUGGAGAAGAACAGAUCGGAAGAGCACACGU ; what pKd value has been reported?
Reply: 8.38
